The reported measurements were obtained from the supplement of paper PMC11908140.

8OG:A repair function score reference
B1: library; numbered along this chain (parent)
chain: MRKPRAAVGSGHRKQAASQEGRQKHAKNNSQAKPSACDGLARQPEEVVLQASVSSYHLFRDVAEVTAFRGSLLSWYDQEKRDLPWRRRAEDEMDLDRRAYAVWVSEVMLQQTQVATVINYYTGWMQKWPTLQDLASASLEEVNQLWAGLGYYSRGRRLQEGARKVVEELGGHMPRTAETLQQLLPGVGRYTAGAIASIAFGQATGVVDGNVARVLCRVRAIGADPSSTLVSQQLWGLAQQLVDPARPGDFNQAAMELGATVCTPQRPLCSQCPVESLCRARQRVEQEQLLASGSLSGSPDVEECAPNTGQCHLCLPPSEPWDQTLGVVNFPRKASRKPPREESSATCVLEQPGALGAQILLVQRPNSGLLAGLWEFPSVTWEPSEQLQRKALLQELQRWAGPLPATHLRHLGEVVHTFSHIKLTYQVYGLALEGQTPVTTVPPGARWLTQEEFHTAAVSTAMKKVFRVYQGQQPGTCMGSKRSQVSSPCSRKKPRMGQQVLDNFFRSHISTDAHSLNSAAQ

variants of: B1; experiment: 8OG:A repair function score (normalized; synonymous = 0, nonsense = -1) (normalized log-likelihood score); higher = more repair activity (WT-like); details: with 8OG:A DNA repair reporter (GFP) in HEK-293 MUTYH KO cells;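 also: cells sorted at 72 h after reporter transfection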
Just the number.

Solved entries:
var | recordedValue
L355I | -0.0806
S138H | 0.0365
L290F | -0.0363
G309F | 0.0213
R446P | -1.13
R279Y | -0.151

q: Provide one value: measured 8OG:A repair function score of Y151E
a: -1.21

q: Provide one value: measured 8OG:A repair function score of L392P
a: -1.09
